Hey, just so you know, these numbers are from ChEMBL document CHEMBL5608208.

test system: Staphylococcus aureus; assay: Antibacterial activity against Staphylococcus aureus ATCC 29213 incubated for 18 hrs by serial two-fold dilution method; assay type: functional
# MIC per record follows
parameterMeasured: MIC (µg/mL)

1) COc1ccc([C@H]2c3[nH]c4ccccc4c3C[C@H]3C(=O)/C(=C(\C)O)C(=O)N23)cc1	8
2) C/C(O)=C1\C(=O)[C@@H]2Cc3c([nH]c4ccccc34)[C@@H](c3ccc(-c4cc(C(F)(F)F)cc(C(F)(F)F)c4)cc3)N2C1=O	1
3) CC/C(O)=C1\C(=O)[C@@H]2Cc3c([nH]c4ccccc34)[C@@H](c3ccc(-c4cc(F)cc(F)c4)cc3)N2C1=O	0.063

====

assay: MRT(0 to infinity) in ICR mouse at 1 mg/kg, iv; type: ADME, organism-based; details: in vivo
parameterMeasured: MRT inf (h)

1. C/C(O)=C1\C(=O)[C@@H]2Cc3c([nH]c4ccccc34)[C@@H](c3ccc(-c4cc(F)cc(F)c4)cc3)N2C1=O	11.1

====

assay: Clearance in ICR mouse at 1 mg/kg, iv; format: ADME, organism-based; conditions: in vivo
parameterMeasured: clearance (mL/min/kg)

1. C/C(O)=C1\C(=O)[C@@H]2Cc3c([nH]c4ccccc34)[C@@H](c3ccc(-c4cc(F)cc(F)c4)cc3)N2C1=O	3.88

====

assay: AUC(0 to t) in ICR mouse at 5 mg/kg, po; format: ADME, organism-based; details: in vivo
parameterMeasured: AUC(0-t) (ng·h/mL)

1. C/C(O)=C1\C(=O)[C@@H]2Cc3c([nH]c4ccccc34)[C@@H](c3ccc(-c4cc(F)cc(F)c4)cc3)N2C1=O	2450

====

tested on: Staphylococcus aureus; assay: Antibacterial activity against Staphylococcus aureus ATCC 29213 incubated for 18 hrs by serial two-fold dilution method; assay type: functional
Threshold 8 µg/mL: MIC strictly smaller gives Yes, otherwise No.

1. C/C(O)=C1\C(=O)[C@@H]2Cc3c(n(C)c4ccccc34)[C@@H](c3ccc(-c4ccc(F)cc4)cc3)N2C1=O	Yes
2. C/C(O)=C1\C(=O)[C@@H]2Cc3c([nH]c4ccccc34)[C@@H](c3ccc(-c4ccc(C)cc4)cc3)N2C1=O	Yes
3. C/C(O)=C1\C(=O)[C@@H]2Cc3c([nH]c4ccccc34)[C@@H](c3ccc(-c4cccc(C(F)(F)F)c4)cc3)N2C1=O	Yes
4. C/C(O)=C1\C(=O)[C@@H]2Cc3c([nH]c4ccccc34)[C@@H](c3ccc(C)cc3)N2C1=O	Yes
5. C/C(O)=C1\C(=O)[C@@H]2Cc3c([nH]c4ccccc34)[C@@H](C)N2C1=O	No
6. C/C(O)=C1\C(=O)[C@@H]2Cc3c([nH]c4ccccc34)[C@@H](c3ccc(C(F)(F)F)cc3)N2C1=O	Yes
7. C/C(O)=C1\C(=O)[C@@H]2Cc3c([nH]c4ccccc34)CN2C1=O	No
8. C/C(O)=C1\C(=O)[C@@H]2Cc3c([nH]c4ccccc34)[C@@H](c3ccccn3)N2C1=O	No
9. C/C(O)=C1\C(=O)[C@@H]2Cc3c([nH]c4ccccc34)[C@@H](c3ccc(F)cc3)N2C1=O	Yes
10. C/C(O)=C1\C(=O)[C@@H]2Cc3c([nH]c4ccccc34)[C@H](c3cccc(F)c3)N2C1=O	No
11. CCn1c2c(c3ccccc31)C[C@H]1C(=O)/C(=C(\C)O)C(=O)N1[C@@H]2c1ccc(-c2ccc(F)cc2)cc1	Yes
12. O=C1/C(=C(/O)c2ccccc2)C(=O)N2[C@H](c3ccc(-c4cc(F)cc(F)c4)cc3)c3[nH]c4ccccc4c3C[C@@H]12	Yes
13. C/C(O)=C1\C(=O)[C@@H]2Cc3c([nH]c4ccccc34)[C@H](c3ccccc3)N2C1=O	No
14. C/C(O)=C1\C(=O)[C@@H]2Cc3c([nH]c4ccccc34)[C@@H](c3ccc(-c4ccc(OC(F)(F)F)cc4)cc3)N2C1=O	Yes
15. C/C(O)=C1\C(=O)[C@@H]2Cc3c([nH]c4ccccc34)[C@H](c3ccc(C(F)(F)F)cc3)N2C1=O	No
16. C/C(O)=C1\C(=O)[C@@H]2Cc3c([nH]c4ccccc34)[C@@H](c3ccc(C(C)(C)C)cc3)N2C1=O	Yes
17. CC[C@@H]1c2[nH]c3ccccc3c2C[C@H]2C(=O)/C(=C(\C)O)C(=O)N12	No
18. C/C(O)=C1\C(=O)[C@@H]2Cc3c([nH]c4ccccc34)[C@@H](c3ccc(-c4ccc(F)cc4)cc3)N2C1=O	Yes
19. C/C(O)=C1\C(=O)[C@@H]2Cc3c([nH]c4ccccc34)[C@@H](c3ccc(-c4cccc(F)c4)cc3)N2C1=O	Yes
